Attribution: patent US5241087A

compounds and their reported Relative Rate (dehydrocyanation)
- Tested on: (R)-oxynitrilase
- PROTOCOL SUMMARY: Relative rate of dehydrocyanation of cyanohydrins by soluble (R)-oxynitrilase (initial rate studies, absorbance)
- Assay type: biochemical
- MEASUREMENT SETUP: (R)-oxynitrilase with 0.21 mM solution of cyanohydrin; relative to benzaldehyde cyanohydrin = 1.0
In your answer, state the number alone without any accompanying words.

Field: example entries. Status: answers known.
{"columns": ["COMPOUND", "REPORTED RESULT"],
 "data": [
  ["CC=CC(O)C#N (stereo not shown) [Crotonaldehyde cyanohydrin]", 0.90],
  ["Cc1ccc(C(O)C#N)cc1 (stereo not shown) [p-Tolualdehyde cyanohydrin]", 0.45],
  ["CCc1ccc(C(O)C#N)cc1 (stereo not shown) [p-Ethylbenzaldehyde cyanohydrin]", 0.13],
  ["N#CC(O)c1ccco1 (stereo not shown) [Furfural cyanohydrin]", 2.5],
  ["Cc1ccc(C(O)C#N)o1 (stereo not shown) [5-Methylfurfural cyanohydrin]", 2.8]
]}

Which Relative Rate (dehydrocyanation) is reported with (R)-oxynitrilase for this entry: COc1cccc(C(O)C#N)c1 (stereo not shown) [m-Anisaldehyde cyanohydrin] ? 0.19

Which Relative Rate (dehydrocyanation) is reported with (R)-oxynitrilase for this entry: N#CC(O)c1ccccc1 (stereo not shown) [Benzaldehyde cyanohydrin] ? 1.0

Which Relative Rate (dehydrocyanation) is reported with (R)-oxynitrilase for this entry: N#CC(O)C=Cc1ccccc1 (stereo not shown) [Cinnamaldehyde cyanohydrin] ? 0.05

Which Relative Rate (dehydrocyanation) is reported with (R)-oxynitrilase for this entry: COc1ccc(C(O)C#N)cc1 (stereo not shown) [p-Anisaldehyde cyanohydrin] ? 0.17

Which Relative Rate (dehydrocyanation) is reported with (R)-oxynitrilase for this entry: N#CC(O)c1ccc2c(c1)OCO2 (stereo not shown) [Piperonal cyanohydrin] ? 2.1
